System: A-375
assayMethodText: Antiproliferative activity against human A-375 cells assessed as cell growth inhibition
Assay type: functional, cell-based
endpoint: pIC50
The scale used: pIC50 is minus the common logarithm of the concentration in molar units.

// pIC50 lookup, compound = "COc1cc(/C=C/C(=O)N2CCC=CC2=O)cc(OC)c1OC" , result: 5.60

* * *

Test system: SF-295
assayMethodText: Antiproliferative activity against human SF-295 cells assessed as cell growth inhibition
Assay type: functional, cell-based
endpoint: pIC50
The scale used: pIC50 is minus the common logarithm of the concentration in molar units.

// pIC50 lookup, compound = "O=c1[nH]cc(F)c(=O)[nH]1" , result: 5.63
